Test protocol: MTT cell viability assay, mouse hepatocytes (serum-free RPMI-1640)
Assay type: cell-based
Experimental setup: BALB/c, isolated mouse hepatocytes
Property: viability at 72 h, 2 μM (%)
Your answer is read as %, so omit the unit and give the number.

// query Which viability at 72 h, 2 μM value is on record for CC[C@H](C)C(=O)O[C@H]1C[C@@H](C)C=C2C=C[C@H](C)[C@H](CC[C@@H]3C[C@@H](O)CC(=O)O3)[C@H]21 ?
// result 85

====

Test protocol: MTT cell viability assay, Hep G2 cells (serum-free DMEM)
Experimental setup: human, Hep G2 cells, Cell viability, lovastatin 5 μM, 72 hr
Property: viability at 72 h, 5 μM (%)
Report the figure in % without appending any unit label.

// query Entry CC[C@H](C)C(=O)O[C@H]1C[C@@H](C)C=C2C=C[C@H](C)[C@H](CC[C@@H]3C[C@@H](O)CC(=O)O3)[C@H]21 : reported viability at 72 h, 5 μM = ?
// result 80.9

====

Test protocol: MTT cell viability assay, Hep G2 cells (serum-free DMEM)
Experimental setup: human, Hep G2 cells, Cell viability, lovastatin 1 μM, 72 hr
Property: viability at 72 h, 1 μM (%)
Write the number in % without appending the unit.

// query Could you share which viability at 72 h, 1 μM value was measured for CC[C@H](C)C(=O)O[C@H]1C[C@@H](C)C=C2C=C[C@H](C)[C@H](CC[C@@H]3C[C@@H](O)CC(=O)O3)[C@H]21 [Lovastatin, lovastatin] ?
// result 88.7

====

Test protocol: MTT cell viability assay, Hep G2 cells (serum-free DMEM)
Experimental setup: human, Hep G2 cells, Cell viability, CAO 5 μM, 48 hr
Property: viability at 48 h, 5 μM (%)
Numbers only here, please. The scale is %.

// query Consider the compound CCCCCCCCOC(=O)/C=C/c1ccc(O)c(O)c1 [CAO, caffeic acid 1-octyl ester] and give its measured viability at 48 h, 5 μM.
// result 44.2

====

Test protocol: MTT cell viability assay, Hep G2 cells (serum-free DMEM)
Experimental setup: human, Hep G2 cells, Cell viability, taxol 100 nM, 48 hr
Property: viability at 48 h, 100 nM (%)
The figure you give is taken to be in %; do not add the unit.

// query Given the entry CC(=O)O[C@H]1C(=O)[C@@]2(C)[C@H]([C@H](OC(=O)c3ccccc3)[C@]3(O)C[C@H](OC(=O)[C@H](O)[C@@H](NC(=O)c4ccccc4)c4ccccc4)C(C)=C1C3(C)C)[C@]1(OC(C)=O)CO[C@@H]1C[C@@H]2O , report its measured viability at 48 h, 100 nM.
// result 34.6

====

Test protocol: MTT cell viability assay, Hep G2 cells (serum-free DMEM)
Experimental setup: human, Hep G2 cells, Cell viability, taxol 5 nM, 120 hr
Property: viability at 120 h, 5 nM (%)
Supply the numeric figure in %, leaving out any unit text.

// query Which viability at 120 h, 5 nM value is on record for CC(=O)O[C@H]1C(=O)[C@@]2(C)[C@H]([C@H](OC(=O)c3ccccc3)[C@]3(O)C[C@H](OC(=O)[C@H](O)[C@@H](NC(=O)c4ccccc4)c4ccccc4)C(C)=C1C3(C)C)[C@]1(OC(C)=O)CO[C@@H]1C[C@@H]2O ?
// result 33.8
